Values were extracted from paper PMC5775417.

# fold loss in affinity at E95A mutant vs WT per record follows
TARGET_OR_SYSTEM: E95^2.65A c-myc-D2LR (Homo sapiens, UniProt P14416, E95A)
Construct: expressed in transfected cells
Sequence (P14416 whole entry E95A): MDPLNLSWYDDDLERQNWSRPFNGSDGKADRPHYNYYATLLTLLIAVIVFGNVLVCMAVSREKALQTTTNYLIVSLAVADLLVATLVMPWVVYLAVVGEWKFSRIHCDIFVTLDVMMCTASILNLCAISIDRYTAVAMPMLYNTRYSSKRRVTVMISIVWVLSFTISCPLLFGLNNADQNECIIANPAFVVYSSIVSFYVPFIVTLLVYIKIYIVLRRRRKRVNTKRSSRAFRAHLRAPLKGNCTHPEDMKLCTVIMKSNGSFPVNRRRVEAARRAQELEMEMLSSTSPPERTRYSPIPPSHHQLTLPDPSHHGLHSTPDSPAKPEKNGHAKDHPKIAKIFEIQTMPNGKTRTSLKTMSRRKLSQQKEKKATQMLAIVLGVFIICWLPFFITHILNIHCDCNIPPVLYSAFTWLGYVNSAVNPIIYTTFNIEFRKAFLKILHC
EXPERIMENTAL_DETAILS: [3H]spiperone competition binding, membranes of Flp-In CHO cells
MEASUREMENT_PARAMETERS: presence of Na+ (100 mM NaCl)
Method: Flp-In CHO cells (Invitrogen) were transfected with the pOG44 vector encoding Flp recombinase and the pDEST vector encoding the wild-type or mutant c-Myc-D2LR at a ratio of 9:1 using polyethylenimine (Polysciences, Warrington, PA) as transfection reagent. […] The resulting pellet was resuspended in 5 mL of assay buffer, and the protein content was determined using the bicinchoninic acid assay (BCA assay). […]
Please reply with the bare figure in fold and do not write the unit itself.

N#Cc1ccc2c(c1)CN(CC[C@H]1CC[C@H](NC(=O)c3cc4cccc(F)c4[nH]3)CC1)CC2 :: 2
CC(=O)N[C@H]1CC[C@H](CCN2CCc3ccc(C#N)cc3C2)CC1 :: 5

Read the next record carefully.
Enquiry: Record lookup: for E95^2.65A c-myc-D2LR (Homo sapiens, UniProt P14416, E95A), what fold loss in affinity at E95A mutant vs WT belongs to N#Cc1ccc2c(c1)CN(CC[C@H]1CC[C@H](NC(=O)c3cc4ccncc4[nH]3)CC1)CC2 ?
Return: 4

###

# fold loss in affinity at D80A mutant vs WT per record follows
TARGET_OR_SYSTEM: D80^2.50A c-myc-D2LR (Homo sapiens, UniProt P14416, D80A)
Construct: expressed in transfected cells
Sequence (P14416 whole entry D80A): as the sequence (P14416 whole entry E95A) above, with D80A, A95E counted along it
EXPERIMENTAL_DETAILS: [3H]spiperone competition binding, membranes of Flp-In CHO cells
MEASUREMENT_PARAMETERS: 100 mM NaCl
Please reply with the bare figure in fold and do not write the unit itself.

Worked cases, answers included:
CC(=O)N[C@H]1CC[C@H](CCN2CCc3ccc(C#N)cc3C2)CC1 :: 5
CCCN1CCc2ccc(C#N)cc2C1 :: 7

Read the next record carefully.
Enquiry: # lookup: fold loss in affinity at D80A mutant vs WT of N#Cc1ccc2c(c1)CN(CC[C@H]1CC[C@H](NC(=O)c3cc4cccc(F)c4[nH]3)CC1)CC2
Return: 6

###

TARGET_OR_SYSTEM: WT c-myc-D2LR (Homo sapiens, UniProt P14416)
Construct: expressed in transfected cells
Sequence (P14416 whole entry): as the sequence (P14416 whole entry E95A) above, with A95E counted along it
EXPERIMENTAL_DETAILS: [3H]spiperone competition binding, membranes of Flp-In CHO cells
MEASUREMENT_PARAMETERS: WT, 100 mM NaCl; complete displacement of [3H]spiperone; read-out: Ki
Procedure: Flp-In CHO cells (Invitrogen) were transfected with the pOG44 vector encoding Flp recombinase and the pDEST vector encoding the wild-type or mutant c-Myc-D2LR at a ratio of 9:1 using polyethylenimine (Polysciences, Warrington, PA) as transfection reagent. […] The resulting pellet was resuspended in 5 mL of assay buffer, and the protein content was determined using the bicinchoninic acid assay (BCA assay). […]
ASSAY_METRIC: pKi
pKi here: minus log base 10 of the concentration, concentration in moles per litre.

Enquiry: # lookup: pKi of CC(=O)N[C@H]1CC[C@H](CCN2CCc3ccc(C#N)cc3C2)CC1 [MIPS1059]
Return: 6.56
